Values were extracted from the SangsterLogP compilation.

recorded.metric: logP

Some molecules with known logP results, for comparison:
• ClC(CCCCC(Cl)CC(Cl)(Cl)Cl)CC(Cl)(Cl)Cl (configuration not stated) = 6.71
• ClCC(Cl)CCC(Cl)C(Cl)CCC(Cl)CC(Cl)(Cl)Cl (configuration not stated) = 5.4
• ClCC(Cl)CCCCCCC(Cl)CC(Cl)(Cl)Cl (configuration not stated) = 6.42
• ClCC(Cl)CCC(Cl)C(Cl)(Cl)CCC(Cl)CCl (configuration not stated) = 4.2
• ClCC(Cl)CCC(Cl)C(Cl)CCC(Cl)CCl (configuration not stated) = 4.02

[A] CC(Cl)CCC(Cl)C(Cl)CCC(Cl)CCl (configuration not stated)
[B] ClC(CCCCCCC(Cl)CC(Cl)(Cl)Cl)CC(Cl)(Cl)Cl (configuration not stated)
Decide: A or B , by lowest recorded logP. Pick one and reply with its label.
A
(A: 4.19, B: 7.75)
